# assayText: Half life in human microsomes
# Format: ADME, Microsome
Could you please mark satisfied for values of t1/2 below 40 min and not satisfied for values at or above it?

[[record]]
samplesmiles = "Cc1c(Oc2c(F)cccc2F)c(OC(C)C)nn1-c1ncc(Br)cc1F"
category = "not satisfied"

[[record]]
samplesmiles = "COc1ccc(-n2nc(OC(C)C)c(Oc3c(F)cccc3F)c2C)nn1"
category = "satisfied"

[[record]]
samplesmiles = "Cc1c(Oc2ccccc2F)c(OC(C)C)nn1-c1ccc(C2CC2)cn1"
category = "satisfied"

[[record]]
samplesmiles = "Cc1c(Oc2c(F)cccc2F)c(OC(C)C)nn1-c1ccc(C2CC2)cn1"
category = "satisfied"

[[record]]
samplesmiles = "Cc1c(Oc2c(F)cccc2F)c(OC(C)C)nn1-c1ncc(C2CC2)cc1O"
category = "satisfied"

